Reference for the values: patent US8686150B2

Listing: inhibition at 1.14 µM of selected compounds
tested.system: human full-length recombinant PKC βII (Homo sapiens, UniProt P05771)
Construct: Active human full-length recombinant PKC βII; purchased Invitrogen GmbH, Darmstadt, Germany
Sequence (P05771 1-673 isoform P05771-2): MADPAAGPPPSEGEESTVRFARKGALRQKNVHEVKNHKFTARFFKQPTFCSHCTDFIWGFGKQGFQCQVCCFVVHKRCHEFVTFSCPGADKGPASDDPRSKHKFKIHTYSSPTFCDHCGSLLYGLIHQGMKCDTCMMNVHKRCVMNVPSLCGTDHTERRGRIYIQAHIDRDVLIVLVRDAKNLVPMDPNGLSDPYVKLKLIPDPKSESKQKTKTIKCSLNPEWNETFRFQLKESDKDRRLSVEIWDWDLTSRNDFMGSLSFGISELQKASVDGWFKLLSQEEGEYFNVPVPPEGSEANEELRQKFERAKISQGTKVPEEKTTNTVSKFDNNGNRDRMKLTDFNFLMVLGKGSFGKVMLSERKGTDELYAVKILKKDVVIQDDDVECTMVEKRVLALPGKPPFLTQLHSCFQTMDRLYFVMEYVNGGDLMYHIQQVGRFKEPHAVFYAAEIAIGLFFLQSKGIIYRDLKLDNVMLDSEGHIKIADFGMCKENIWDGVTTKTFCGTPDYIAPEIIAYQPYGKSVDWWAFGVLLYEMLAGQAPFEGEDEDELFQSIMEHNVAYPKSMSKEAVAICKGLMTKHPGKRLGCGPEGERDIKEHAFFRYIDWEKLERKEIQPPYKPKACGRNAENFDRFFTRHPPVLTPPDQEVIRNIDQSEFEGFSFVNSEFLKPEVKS
experiment.notes: Determination of PKC βII inhibition (Caliper mobility-shift kinase assay, Fluorescein-RFARKGSLRQKNV peptide substrate)
Format: biochemical
condition.set: example compounds at a final concentration of 1.14 μM (±0.15 μM)
Please answer using the number first and the unit second.

Study these solved cases before continuing.
>>> print(df.to_string())
                                   compound  observed_measurement
0  Cc1n[nH]c2nc(-c3ccc(O)cc3)cc(C(=O)N3CCNC[C@@H]3c3cccc(F)c3)c12                   92%
1  Cc1n[nH]c2nc(-c3ccc(O)c(F)c3)cc(C(=O)N3CCN[C@H](C)C3)c12                   93%
2  Cc1n[nH]c2nc(-c3ccc(O)cc3F)cc(C(=O)N3C[C@@H](C)N(CC4CCOC4)C[C@@H]3C)c12 (stereo partly shown)                   92%
3  Cc1n[nH]c2nc(-c3ccc(O)cc3)cc(C(=O)N3CCNCC3c3c(F)cccc3F)c12 (stereo not shown)                   96%

Tell me inhibition at 1.14 µM reported for CCc1n[nH]c2nc(-c3ccc(O)cc3)cc(C(=O)N(C)C3CCN(C)CC3)c12
34%

Tell me inhibition at 1.14 µM reported for CCC[C@H]1CN(C(=O)c2cc(-c3ccc(O)c(F)c3)nc3[nH]nc(C)c23)CCN1
89%

Tell me inhibition at 1.14 µM reported for CC(=O)N1CCC(NC(=O)c2cc(-c3ccc(O)c(F)c3)nc3[nH]nc(C)c23)CC1
21%

Tell me inhibition at 1.14 µM reported for Cc1n[nH]c2nc(-c3ccc(O)c(F)c3)cc(C(=O)NC3CCCNC3)c12 (stereo not shown)
81%

Tell me inhibition at 1.14 µM reported for CCN1CCCN(C(=O)c2cc(-c3ccc(O)cc3)nc3[nH]nc(C(F)(F)F)c23)CC1
30%

Tell me inhibition at 1.14 µM reported for Cc1n[nH]c2nc(-c3ccc(O)cc3)cc(C(=O)NC3CNCC3C)c12 (stereo not shown)
81%

Tell me inhibition at 1.14 µM reported for COc1cccc(C2CNCCN2C(=O)c2cc(-c3ccc(O)cc3)nc3[nH]nc(C)c23)c1 (stereo not shown)
94%

Tell me inhibition at 1.14 µM reported for CNC1CCN(C(=O)c2cc(-c3ccc(O)cc3F)nc3[nH]nc(C)c23)CC1
93%

Tell me inhibition at 1.14 µM reported for Cc1n[nH]c2nc(-c3ccc(O)cc3F)cc(C(=O)NC3(c4ccccc4)CCNCC3)c12
90%

Tell me inhibition at 1.14 µM reported for CCC1(CC)CNCCN1C(=O)c1cc(-c2ccc(O)cc2F)nc2[nH]nc(C)c12
100%

Tell me inhibition at 1.14 µM reported for Cc1n[nH]c2nc(-c3ccc(O)cc3F)cc(C(=O)N3CC(C)NCC3(C)C)c12 (stereo not shown)
106%

Tell me inhibition at 1.14 µM reported for Cc1n[nH]c2nc(-c3ccc(O)cc3)cc(C(=O)N[C@H]3[C@@H]4CNC[C@@H]43)c12
73%
